# key: entry, value: Mean relative activity
- Tested on: K562 CRISPRi cells
- test: Constant region variant library pooled growth screen, K562
- Type: cell-based, human
- measurement.context: sgRNA constant region variants; relative to the original, un-modified constant region cr995 (= 1)
- Excerpt: We calculated relative activities for each targeting sequence:constant region pair by normalizing its phenotype to that of the targeting sequence paired with the unmodified constant region, identifying 409 constant region variants that on average conferred intermediate activity (0.1-0.9, FIG. 5B). Ten variants selected for individual evaluation also mediated intermediate levels of mRNA knockdown (FIG. 6B). […]
readout: Mean relative activity

molecule="cr730 (nucleic acid, listed as DNA, chemistry not fully specified) guide: GTTTAAGAGCTAAGCTGGAAACAGCATAGCAAGTTTAAATAAGGCTAGTCCGTTATCAACTTGAAAAAGTGGGGGCGAGTCGCCCCT" value_reported=1.018
molecule="cr020 (nucleic acid, listed as DNA, chemistry not fully specified) guide: GTTTAATAGCTAAGCTGGAAACAGCATAGCAAGTTTAAATAAGGCTAGTCCGTTATCAACTTGAAAAAGTGGCACCGAGTCGGTGCT" value_reported=1.02
molecule="cr353 (nucleic acid, listed as DNA, chemistry not fully specified) guide: GTTTAAGAGCTAAGCTGGAAACAGCATAGCAAGTTTAAATAAGGCTAGTCCGTTATCAACTAGAAAAAGTGGCACCGAGTCGGTGCT" value_reported=0.9885
molecule="cr592 (nucleic acid, listed as DNA, chemistry not fully specified) guide: GTTTAAGAGCTAAGCTGGAAACAGCATAGCAAGTTTAAATAAGGTTAATCCGTTATCAACTTGAAAAAGTGGCACCGAGTCGGTGCT" value_reported=1.017
molecule="cr195 (nucleic acid, listed as DNA, chemistry not fully specified) guide: GTTTAAGAGCTAAGCTGGAAACAGCATAGCAAGTTTAAATAAGGCTAGTCCGTTATCAACTTGCAAAAGTGGCACCGATTCGGTGCT" value_reported=0.9986
molecule="cr334 (nucleic acid, listed as DNA, chemistry not fully specified) guide: GTTTAAGAGCTAAGCTGGAAACAGCATAGCAAGTTTAAATAAGGCTAGTCCGTTATCAAGTGGAAACACTGGCACCAAGTTGGTGCT" value_reported=1.025
